pIC50: recorded values
study-target: PA/PB1 (Influenza A virus (A/Puerto Rico/8/1934(H1N1)), UniProt P03431+P03433)
experiment-notes: Inhibition of Influenza A virus PR/8/34 6His-tagged PA (239 to 716 residues) interaction with GST-tagged PB1 (1 to 25 residues) expressed in Escherichia coli compound treated in DMEM serum-free medium measured after overnight incubation by ELISA
For clarity, pIC50 is expressed as the negative log10 of concentration in mol/L.

Some solved entries appear below for comparison.
chemical-structure: Cc1cccc(NC(=O)CSc2nc(-c3ccccc3)cc(-c3ccccc3)c2C#N)c1
numeric-readout: 4.45
--
chemical-structure: Cc1cccc(NC(=O)CSc2nc(-c3ccc(C(F)(F)F)cc3)cc(-c3ccc(C(F)(F)F)cc3)n2)c1
numeric-readout: 4.19
--
chemical-structure: Cc1cccc(NC(=O)CSc2nc(-c3ccccc3)cc(-c3ccccc3)n2)c1
numeric-readout: 3.95
--
chemical-structure: Cc1cccc(NC(=O)CCCSc2nc(-c3ccccc3)cc(-c3ccccc3)c2C#N)c1
numeric-readout: 3.84
--
chemical-structure: Cc1cccc(NC(=O)CSc2cc(-c3ccccc3)cc(-c3ccccc3)n2)c1
numeric-readout: 4.39

Any idea what pIC50 was measured for CSCC[C@H](N)C(=O)N[C@@H](CC(=O)O)C(=O)N[C@H](C(=O)N[C@@H](CC(N)=O)C(=O)N1CCC[C@H]1C(=O)N[C@H](C(=O)N[C@@H](CC(C)C)C(=O)N[C@@H](CC(C)C)C(=O)N[C@@H](Cc1ccccc1)C(=O)N[C@@H](CC(C)C)C(=O)N[C@@H](CCCCN)C(=O)N[C@H](C(=O)N1CCC[C@H]1C(=O)N[C@@H](C)C(=O)N[C@@H](CCC(N)=O)C(=O)O)C(C)C)[C@@H](C)O)C(C)C ?
4.50

###

experiment-notes: Cytotoxicity against HEK293T cells assessed as decrease in cell viability after 24 hrs by MTT assay
Assay type: cell-based, HEK-293T
settings: human
CC50 at 24 h: recorded values

Some solved entries appear below for comparison.
chemical-structure: Cc1cccc(NC(=O)CSc2cc(-c3ccccc3)cc(-c3ccccc3)n2)c1
CC50 at 24 h: > 250 µM
--
chemical-structure: Cc1cccc(NC(=O)CSc2nc(-c3ccc(C(F)(F)F)cc3)cc(-c3ccc(C(F)(F)F)cc3)n2)c1
CC50 at 24 h: > 250 µM

--- query ---
Any idea what CC50 at 24 h was measured for CSCC[C@H](N)C(=O)N[C@@H](CC(=O)O)C(=O)N[C@H](C(=O)N[C@@H](CC(N)=O)C(=O)N1CCC[C@H]1C(=O)N[C@H](C(=O)N[C@@H](CC(C)C)C(=O)N[C@@H](CC(C)C)C(=O)N[C@@H](Cc1ccccc1)C(=O)N[C@@H](CC(C)C)C(=O)N[C@@H](CCCCN)C(=O)N[C@H](C(=O)N1CCC[C@H]1C(=O)N[C@@H](C)C(=O)N[C@@H](CCC(N)=O)C(=O)O)C(C)C)[C@@H](C)O)C(C)C ?
> 250 µM

###

CC50 at 24 h: recorded values
experiment-notes: Cytotoxicity against HEK293T cells assessed as decrease in cell viability after 24 hrs by MTT assay
Assay type: cell-based, HEK-293T
settings: human
Give just the number in µM; leave the unit off.

Some solved entries appear below for comparison.
chemical-structure: Cc1cccc(NC(=O)CCCSc2nc(-c3ccccc3)cc(-c3ccccc3)c2C#N)c1
CC50 at 24 h [µM]: 95.6
//
chemical-structure: N#Cc1c(-c2ccccc2)cc(-c2ccccc2)nc1SCC(=O)N1CCOCC1
CC50 at 24 h [µM]: 184

--- query ---
Any idea what CC50 at 24 h was measured for Cc1cccc(NC(=O)CSc2nc(-c3ccccc3)ccc2C#N)c1 ?
32
